// data source = PubChem BioAssay

Please go through the items and note down their z-score.
# Assay comment: budding yeast growth changes without added modifier – OD600, strain BY4716, 24 h, basal condition, primary screen (AID 1173)
# Particulars: S. cerevisiae BY4716 growth, OD600, 24 h; higher = more signal, called active from +8 up or from −8 down
One number for each entry.

>  <Mol>
COC(=O)[C@@]1(Cc2ccc(F)cc2)[C@H]2c3cc(C(=O)N4CCCC4)n(Cc4ccc(Cl)c(C(F)(F)F)c4)c3C[C@H]2CN1C(=O)c1ccccc1

>  <z-score>
1.55

$$$$

Value sought for every listed compound: z-score.
1. C=CCN1C(=O)[C@]2(Cc3ccccc31)N=C(c1ccc(OCCCO)cc1)O[C@@H]2c1ccccc1
2. COCCOC(=O)N1C(=O)[C@@]2(c3cc(C#CCCO)ccc31)[C@H](c1ccc(O)cc1)N1[C@H](c3ccccc3)[C@H](c3ccccc3)OC(=O)[C@H]1[C@@H]2C(=O)N1CCCCCCC1

1: -2.22; 2: 0.015

The value of z-score measured for the compound [N-]=[N+]=Nc1ccccc1[C@@H]1OC(c2ccc(OCCCO)cc2)=N[C@]1(CCS(=O)(=O)c1ccccc1)C(=O)O turned out to be -0.14

###

# Test system: Fibroblast growth factor 10 (Homo sapiens)
# Assay comment: compounds binding fibroblast growth factor 10 – biochemical, small-molecule microarray, 635 nm fluorescence, primary screen (AID 1102)
# Particulars: FGF10 binding, fluorescence 635 nm, higher = more signal
Tag: y if measured composite z-score is not below 1, n if it is.

Worked examples follow.
>  <Compound>
C=C[C@H](C)[C@H](OC(=O)Nc1ccc(OC)cc1)c1ccc(O)c2ccccc12

>  <Classification>
n

$$$$
>  <Compound>
COCCOC(=O)N1C(=O)[C@@]2(c3cc(C#CCCO)ccc31)[C@H](c1ccc(O)cc1)N1[C@H](c3ccccc3)[C@H](c3ccccc3)OC(=O)[C@H]1[C@@H]2C(=O)N1CCCCCCC1

>  <Classification>
y

$$$$
>  <Compound>
CC(C)CNC(=O)[C@@]1(C)c2ccccc2C(=O)N(C(C)C)[C@H]1c1ccc(CO)cc1

>  <Classification>
n

$$$$
>  <Compound>
COCCOC(=O)N1C(=O)[C@@]2(c3cc(C#CC4=CCCCC4)ccc31)[C@H](C(=O)N1CCN(c3ncccn3)CC1)[C@H]1C(=O)O[C@H](c3ccccc3)[C@H](c3ccccc3)N1[C@@H]2c1ccc(OCCO)cc1

>  <Classification>
y

$$$$
>  <Compound>
C=C(C)[C@@H]1CC=C(C(O)C2C=CC3C(=O)N(Cc4ccccc4)C(=O)C3N2n2cnnc2)CC1 (some centres not stated)

>  <Classification>
n

$$$$
>  <Compound>
C=C(COC)C(=O)CC[C@@H](OC(=O)c1ccccc1-c1ccccc1C(=O)O)c1ccc(CO)o1

>  <Classification>
y

$$$$

Here is another compound to look at.
Assess whether reported composite z-score for C=CC[C@@]1(C(=O)NCc2ccccc2)N=C(c2ccc(OCCCO)cc2)O[C@@H]1c1ccccc1CN=[N+]=[N-] sits at 1 or higher.
y

###

# Assay comment: JC-1 mitochondrial signal, unstimulated myeloma cells – cell-based, JC-1 fluorescence, RPMI8226, 24 h, 100 nL compound, profiling panel (AID 1169); further: test concentration not given here
# Particulars: JC-1 mitochondrial potential fluorescence, higher = more signal
Reported property: z-score
Give bare numbers.

Below are worked cases with known answers.
>  <Compound>
C[C@]1(C(=O)NCC(F)(F)F)c2ccccc2C(=O)N(Cc2cc(F)cc(C(F)(F)F)c2)[C@H]1c1ccc(CO)cc1

>  <z-score>
-0.494

$$$$
>  <Compound>
CC(C)[C@H]1COC(=O)N1C(=O)[C@H]1[C@@H](c2ccccc2)N(c2ccccc2)O[C@@H]1C

>  <z-score>
-0.361

$$$$
>  <Compound>
Cc1ccc(N2C(=O)c3ccccc3[C@@H](C(=O)NC(C)C)[C@@H]2c2ccc(CO)cc2)nc1

>  <z-score>
0.918

$$$$
>  <Compound>
CCN(CC)c1ccc(N2CC=CC34O[C@@H]5C=CCCOC(=O)C5[C@H]3C(=O)N(CCCO)[C@@H]4C2=O)cc1 (stereo partly drawn)

>  <z-score>
0.0131

$$$$
>  <Compound>
CC(c1ccccc1)C(O)C1C=CC2C(=O)N(Cc3ccccc3)C(=O)C2N1n1cnnc1 (stereo not drawn)

>  <z-score>
-0.107

$$$$
>  <Compound>
CC(C)(C)OC(=O)CC[C@@]1(C(=O)N2CCOCC2)N=C(c2ccc(OCCCO)cc2)O[C@@H]1c1ccccc1N=[N+]=[N-]

>  <z-score>
-0.499

$$$$
>  <Compound>
COc1ccccc1CN1C(=O)c2ccccc2[C@](Cc2ccccc2I)(C(=O)NC2CC2)[C@@H]1c1ccc(CO)cc1

>  <z-score>
-1.04

$$$$

As a next step, examine the compound that follows.
The value of z-score measured for the compound Cc1ccccc1/C=C/C=O turned out to be 0.426

###

# Test system: Dickkopf-related protein 1 (Homo sapiens) (UniProt O94907)
# Sequence (O94907 whole entry, looked up): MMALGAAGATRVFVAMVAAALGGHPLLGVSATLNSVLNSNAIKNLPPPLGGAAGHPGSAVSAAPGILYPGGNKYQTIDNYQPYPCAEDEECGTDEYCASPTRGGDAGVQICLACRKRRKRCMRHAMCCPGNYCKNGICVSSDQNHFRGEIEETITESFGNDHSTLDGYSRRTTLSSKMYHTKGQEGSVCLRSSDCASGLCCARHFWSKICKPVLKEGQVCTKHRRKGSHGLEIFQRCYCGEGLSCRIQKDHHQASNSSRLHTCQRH
# Assay comment: small molecules binding DKK1 protein – biochemical, small-molecule microarray, 635 nm fluorescence scan, primary screen (AID 1106);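 further: score merges emission near 667 nm with signal to noise over three replicate slides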
# Particulars: higher = more signal
Please go through the items and note down their composite z-score.
One number for each entry.

>  <Molecule>
COc1ccccc1CN1C(=O)c2ccccc2[C@](Cc2ccccc2I)(C(=O)NC2CC2)[C@@H]1c1ccc(CO)cc1

>  <composite z-score>
0.974

$$$$
>  <Molecule>
O[C@@H](Cc1ccccc1)[C@@H](/C=C/c1ccccc1)NCc1ccccc1Br

>  <composite z-score>
-1.42

$$$$
>  <Molecule>
COCCOC(=O)N1C(=O)[C@@]2(c3cc(C#Cc4ccc(OC)cc4)ccc31)[C@H](c1ccc(OCCO)cc1)N1[C@H](c3ccccc3)[C@H](c3ccccc3)OC(=O)[C@H]1[C@@H]2C(=O)N1CCc2cc(OC)c(OC)cc2C1

>  <composite z-score>
0.435

$$$$
>  <Molecule>
CN1C(=O)C2C(C1=O)C1C=C(c3ccc(CO)cc3)C2C(C2CC2)N1Cc1sc2ccccc2c1Cl (stereo not drawn)

>  <composite z-score>
0.473

$$$$
>  <Molecule>
CCOC(=O)N1C(c2ccc(OCCCO)cc2)=NC(C(=O)OC)N1C(=O)OCC (stereo not drawn)

>  <composite z-score>
0.471

$$$$

Value sought for every listed molecule: composite z-score.
1. COC(=O)[C@@]1(Cc2ccc(F)cc2)[C@H]2c3cc(C(=O)N4CCCC4)n(CCc4ccc(OC)c(Br)c4)c3C[C@H]2CN1C(=O)c1ccccc1
2. CCOC(=O)C=Cc1cccc(OC)c1O
3. C#C[C@H]1Oc2ccccc2S(=O)(=O)N2CCC[C@@H]12

-0.813
-1.77
1.29

###

# Test system: Sonic hedgehog protein (Shh)
# Assay comment: Sonic hedgehog microarray binding compounds – biochemical, small-molecule microarray, 635/667 nm fluorescence, primary screen (AID 1151);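 further: Shh protein binding to compounds spotted on small-molecule microarray slides; score combines spot fluorescence intensity with signal-to-noise across triplicate slides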
# Particulars: 635 nm fluorescence, higher = more signal
Please go through the items and note down their composite z-score.
Numbers only.

>  <Mol>
O=c1cccc(-c2cccc3ccccc23)o1

>  <Test system>
Sonic hedgehog protein (Shh)

>  <Observed measurement>
-0.343

$$$$
>  <Mol>
COC(=O)[C@@]1(Cc2ccc(OC)cc2)[C@H]2c3cc(C(=O)N4CCCC4)n(CCN4CCOCC4)c3C[C@H]2CN1C(=O)c1ccccc1

>  <Test system>
Sonic hedgehog protein (Shh)

>  <Observed measurement>
-0.641

$$$$
>  <Mol>
[N-]=[N+]=NCc1ccccc1C[C@]1(C(=O)NCc2ccccc2)COC(c2ccc(OCCCO)cc2)=N1

>  <Test system>
Sonic hedgehog protein (Shh)

>  <Observed measurement>
-1.13

$$$$

As a next step, examine the molecule that follows.
The value of composite z-score measured for the molecule COCCOC(=O)N1C(=O)[C@@]2(c3cc(C#Cc4ccc(OC)cc4)ccc31)[C@H](c1ccc(OCCO)cc1)N1[C@H](c3ccccc3)[C@H](c3ccccc3)OC(=O)[C@H]1[C@@H]2C(=O)N1CCc2cc(OC)c(OC)cc2C1 turned out to be 1.85

###

Please go through the items and note down their z-score.
# Assay comment: resazurin metabolic signal in HepG2 cells – cell-based, resazurin fluorescence, 24 h, PK04 Diversity Set, profiling panel (AID 1172); further: test concentration not given here
# Particulars: HepG2 viability, higher = more signal
Numbers only.

>  <Mol>
C=C(CCCC)C(=O)CC[C@@H](OC(=O)c1ccccc1-c1ccccc1C(=O)O)c1ccc(CO)o1

>  <Reported property>
z-score

>  <Observed measurement>
0.0232

$$$$
>  <Mol>
CC(C)C[C@@H]1NC(=O)[C@@H]2C[C@H](C(=O)NCCCCN(C)C)[C@H](c3ccc(O)cc3)N2C1=O

>  <Reported property>
z-score

>  <Observed measurement>
0.955

$$$$
>  <Mol>
C=CC[C@@]1(C(=O)NCc2ccccc2)N=C(c2ccc(OCCCO)cc2)O[C@@H]1c1ccccc1CN=[N+]=[N-]

>  <Reported property>
z-score

>  <Observed measurement>
-0.46

$$$$

Value sought for every listed compound: z-score.
1. COCCOC(=O)N1C(=O)[C@@]2(c3ccccc31)[C@H](c1ccc(O)cc1)N1[C@H](c3ccccc3)[C@H](c3ccccc3)OC(=O)[C@H]1[C@@H]2C(N)=O
2. C=C(CCCC)/C(=C/C[C@H](OC(C)=O)c1ccc(CO)o1)c1cc(C(=O)OC)ccc1OC
3. C=C(C(=O)CC[C@H](OC(=O)c1cccnc1)c1ccccc1OCCO)C(C)C
4. C=CCOC(=O)[C@@H]1[C@H]2C(=O)O[C@H](c3ccccc3)[C@H](c3ccccc3)N2[C@H](c2ccc(OCCOC(=O)[C@H]3C[C@H]4C(=O)N[C@@H](CC(C)C)C(=O)N4[C@H]3c3cccc(OCCO)c3)cc2)[C@@]12C(=O)Nc1ccc(I)cc12

1: -0.701; 2: -0.577; 3: 0.3; 4: -0.525

Value sought for every listed compound: z-score.
1. O=C1O[C@@H](c2ccccc2)[C@@H](c2ccccc2)N2[C@@H](c3ccccc3OCCO)[C@]3(C(=O)Nc4ccc(C#CC5(O)CCCCCC5)cc43)[C@@H](C(=O)NC[C@H](O)c3ccccc3)[C@H]12
2. C[N+](C)(C)CCCC[C@@H]1NC(=O)[C@H]2C[C@@H](C(=O)O)[C@@H](c3cccc(OCCO)c3)N2C1=O
3. COC(=O)[C@@]1(Cc2ccc(F)cc2)[C@H]2c3cc(C(=O)N(C)C)n(CCCNc4ccc(C(F)(F)F)cc4Cl)c3C[C@H]2CN1C(=O)c1ccccc1
4. COC(=O)[C@@]1(Cc2ccc(OC)cc2)[C@H]2c3cc(C(=O)N4CCCC4)n(CCc4ccccn4)c3C[C@H]2CN1C(=O)c1ccccc1
5. COc1ccc(C#Cc2ccc3c(c2)[C@]2(C(=O)N3)[C@H](C(=O)N3CCc4cc(OC)c(OC)cc4C3)[C@H]3C(=O)O[C@H](c4ccccc4)[C@H](c4ccccc4)N3[C@@H]2c2ccc(OCCO)cc2)cc1

1. -2.02
2. 0.352
3. -0.591
4. -0.608
5. 0.0594

The value of z-score measured for the compound C=C(/C(=C/C[C@@H](OC(C)=O)c1ccc(CO)o1)c1cnc2ccccc2c1)C(C)C turned out to be -1.05
